// MIC, antibiotic with 0.5 ug/mL (¼ MIC) of Compound (1a) lookup, one value per entry
test system: H. influenzae Q1; assay: MIC against H. influenzae Q1, alone and with subinhibitory concentrations of a second agent;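 note: combinations paired PDF inhibitors with macrolides, one class added below its own MIC to test whether the MIC of the other class dropped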; assay type: cell-based, Haemophilus influenzae; conditions: H. influenzae Q1; +0.5 ug/mL Compound (1a)
Unit µg/mL implied. Number only.

Known results for compounds:
Noted MIC, antibiotic with 0.5 ug/mL (¼ MIC) of Compound (1a) for O=C(O)c1cn(C2CC2)c2cc(N3CCNCC3)c(F)cc2c1=O , tested on H. influenzae Q1: 0.008

Noted MIC, antibiotic with 0.5 ug/mL (¼ MIC) of Compound (1a) for CC[C@H]1OC(=O)C[C@@H](O)[C@H](C)[C@@H](O[C@@H]2O[C@H](C)[C@@H](O[C@H]3C[C@@](C)(O)[C@@H](O)[C@H](C)O3)[C@H](N(C)C)[C@H]2O)[C@@H](CC=O)C[C@@H](C)C(=O)/C=C/C(C)=C/[C@@H]1CO[C@@H]1O[C@H](C)[C@@H](O)[C@@H](OC)[C@H]1OC , tested on H. influenzae Q1: 8

Noted MIC, antibiotic with 0.5 ug/mL (¼ MIC) of Compound (1a) for CC[C@H]1OC(=O)[C@H](C)[C@@H](O[C@H]2C[C@@](C)(OC)[C@@H](O)[C@H](C)O2)[C@H](C)[C@@H](O[C@@H]2O[C@H](C)C[C@H](N(C)C)[C@H]2O)[C@](C)(O)C[C@@H](C)CN(C)[C@H](C)[C@@H](O)[C@]1(C)O , tested on H. influenzae Q1: 0.25

Now consider a different compound.
Noted MIC, antibiotic with 0.5 ug/mL (¼ MIC) of Compound (1a) for CC[C@H]1OC(=O)[C@H](C)[C@@H](O[C@H]2C[C@@](C)(OC)[C@@H](O)[C@H](C)O2)[C@H](C)[C@@H](O[C@@H]2O[C@H](C)C[C@H](N(C)C)[C@H]2O)[C@](C)(O)C[C@@H](C)C(=O)[C@H](C)[C@@H](O)[C@]1(C)O , tested on H. influenzae Q1: 2
